Test system: CCRIS mutagenicity, Ames/micronucleus/aberration tests
procedure_text: CCRIS mutagenicity studies
details: Test System: AMES SALMONELLA TYPHIMURIUM; Strain/Indicator: TA97; Metabolic Activation: NONE; Method: STANDARD PLATE
The source made the active and inactive calls. No rule for the calls is given here.
Log the outcome using a class from active, inactive

Worked set:
>  <compound>
COc1cc(-c2oc3cc(O)cc(O)c3c(=O)c2O)ccc1O

>  <category>
inactive

$$$$
>  <compound>
Nc1ncnc2c1ncn2Cc1ccccc1

>  <category>
inactive

$$$$
>  <compound>
O=S1OC[C@@H]2[C@H](CO1)[C@]1(Cl)C(Cl)=C(Cl)[C@@]2(Cl)C1(Cl)Cl (stereo partly drawn)

>  <category>
inactive

$$$$
>  <compound>
Cc1ccc(S(=O)(=O)NN)cc1

>  <category>
inactive

$$$$
>  <compound>
C[n+]1ccn(CCC[n+]2ccc(C(N)=O)cc2)c1/C=N/O

>  <category>
inactive

$$$$

Lookup: Status in this test for BrC(Br)C(Br)Br ?
Found: active

Lookup: What outcome does the record of this test show for Cc1nc2c(c3[nH]c4ccccc4c13)C(=O)C=CC2=O ?
Found: inactive

Lookup: // return assay outcome for CN(C)CCc1cc(O)ccc1CNc1ccccn1
Found: inactive

Lookup: Answer briefly: the call reported for CC(=O)c1cc(C(C)(C)C)cc2c1CCC2(C)C in this assay.
Found: inactive

Lookup: Tell me the assay call for Clc1ccc(Cl)nc1 please.
Found: inactive

Lookup: Any idea what this test logged for Nc1ncnc2c1ncn2C(c1ccccc1)c1ccccc1 ?
Found: inactive

Lookup: Hi, do you know how CC1=C2C(=CO[C@H](C)[C@H]2C)C(=O)C(C(=O)O)=C1O came out in this test?
Found: inactive

Lookup: So what was the verdict on O=NN1CCCC1 in this test?
Found: inactive

----------
Tested on: CCRIS mutagenicity, Ames/micronucleus/aberration tests
procedure_text: CCRIS mutagenicity studies
details: Test System: AMES SALMONELLA TYPHIMURIUM; Strain/Indicator: TA1537; Metabolic Activation: RAT, LIVER, S-9; Method: STANDARD PLATE
Activity calls are given as the source filed them. The rule behind the calls is not given here.
Give your call using only these classes: 1.0 for active, 0.0 for inactive

Some solved entries appear below for comparison.
>  <smiles_string>
Nc1ccc2cc3ccc(N)cc3nc2c1

>  <category>
1.0

$$$$
>  <smiles_string>
CC(=O)c1ccc(S(=O)(=O)NC(=O)NC2CCCCC2)cc1

>  <category>
0.0

$$$$
>  <smiles_string>
CCOC(=O)[C@H]1O[C@@H]1C(=O)N[C@@H](CC(C)C)C(=O)NCCC(C)C

>  <category>
0.0

$$$$
>  <smiles_string>
CN(C)CCN(Cc1cccs1)c1ccccn1

>  <category>
0.0

$$$$
>  <smiles_string>
COc1cc(-c2ccc(N=C=O)c(OC)c2)ccc1N=C=O

>  <category>
0.0

$$$$

Next:
Lookup: Assay outcome for C[C@H]1CCCC(=O)CCCCCc2cc(O)cc(O)c2C(=O)O1 : what was it?
Found: 0.0

----------
Test system: CCRIS mutagenicity, Ames/micronucleus/aberration tests
procedure_text: CCRIS mutagenicity studies
details: Test System: AMES SALMONELLA TYPHIMURIUM; Strain/Indicator: TA102; Metabolic Activation: RAT, LIVER, S-9, AROCLOR 1254; Method: STANDARD PLATE
The source made the active and inactive calls. The rule behind the calls is not given here.
Pick from 1 (active), 0 (inactive) when you respond.

# example entries with known answers
>  <molecule>
C[C@@H]1O[C@@H](O[C@H]2[C@H](O[C@H]3[C@H](O[C@H]4CC[C@@]5(C)[C@@H](CC[C@]6(C)[C@@H]5CC=C5[C@@H]7CC(C)(C)C[C@@H](O)[C@]7(C)CC[C@]56C)[C@@]4(C)CO)O[C@H](C(=O)O)[C@@H](O)[C@@H]3O)O[C@H](CO)[C@H](O)[C@@H]2O)[C@H](O)[C@H](O)[C@H]1O

>  <tested_on>
CCRIS mutagenicity, Ames/micronucleus/aberration tests

>  <category>
0

$$$$
>  <molecule>
Cc1nnc2n1-c1ccc(Cl)cc1C(c1ccccc1Cl)=NC2

>  <tested_on>
CCRIS mutagenicity, Ames/micronucleus/aberration tests

>  <category>
0

$$$$
>  <molecule>
CC(C)CCC[C@@H](C)[C@H]1CC[C@H]2[C@@H]3C[C@@H](O)[C@@]4(O)C[C@@H](O)CC[C@]4(C)[C@H]3CC[C@]12C

>  <tested_on>
CCRIS mutagenicity, Ames/micronucleus/aberration tests

>  <category>
0

$$$$

Lookup: Assay result, entry CN(C)CCc1cc(O)ccc1CNc1ccccn1 — outcome?
Found: 0

Lookup: Kindly provide the recorded test outcome for the following molecule: O=S1OC[C@@H]2[C@H](CO1)[C@]1(Cl)C(Cl)=C(Cl)[C@@]2(Cl)C1(Cl)Cl (stereo partly specified)
Found: 0

Lookup: Lab log entry: CNCCN(Cc1ccc(OC)cc1)c1ccccn1 — outcome as called in the assay?
Found: 0

Lookup: Look up the recorded call for Cc1cc(Cl)ccc1OCCCC(=O)O in this test.
Found: 0

Lookup: I'd appreciate the recorded outcome for CCCC[C@@H](C)[C@@H](OC(=O)C[C@@H](CC(=O)O)C(=O)O)[C@H](C[C@@H](C)C[C@H](O)CCCC[C@@H](O)C[C@H](O)[C@H](C)N)OC(=O)C[C@@H](CC(=O)O)C(=O)O from this test.
Found: 0

----------
Tested on: CCRIS mutagenicity, Ames/micronucleus/aberration tests
procedure_text: CCRIS mutagenicity studies
details: Test System: AMES SALMONELLA TYPHIMURIUM; Strain/Indicator: TA1535; Metabolic Activation: RAT LIVER S-9, PHENOBARBITAL AND BETA-NAPHTHOFLAVONE; Method: PREINCUBATION
Calls of active or inactive are those of the source. No rule for the calls is given here.
endpoint: mutagenic call

Guide cases for mutagenic call, answers given:
>  <smiles_string>
OB(O)O

>  <mutagenic call>
inactive; negative

$$$$
>  <smiles_string>
O=C1OC(=O)c2ccccc21

>  <mutagenic call>
inactive; negative

$$$$
>  <smiles_string>
Cc1ccc(N)cc1C

>  <mutagenic call>
inactive; negative

$$$$
>  <smiles_string>
CCC(=O)O

>  <mutagenic call>
inactive; negative

$$$$
>  <smiles_string>
N#CN=C(N)N

>  <mutagenic call>
inactive; negative

$$$$
>  <smiles_string>
CCCCCCCCCCCCCCCC(=O)O

>  <mutagenic call>
inactive; negative

$$$$

Now, please, on to the next molecule.
Lookup: mutagenic call for Cc1ccc(N=C=O)cc1N=C=O ?
Found: inactive; negative

----------
Test system: CCRIS mutagenicity, Ames/micronucleus/aberration tests
procedure_text: CCRIS mutagenicity studies
details: Test System: AMES SALMONELLA TYPHIMURIUM; Strain/Indicator: TA98; Metabolic Activation: RAT, LIVER, S-9, PHENOBARBITAL; Method: STANDARD PLATE
The source made the active and inactive calls. The rule behind the calls is not given here.
Returns: one label drawn from active, inactive

Example entries and their recorded answers appear below.
>  <compound>
O=c1c2c(O)cccc2oc2c3c(cc(O)c12)O[C@H]1OCC[C@@H]31

>  <category>
inactive

$$$$
>  <compound>
COc1ccc2nc3occc3c(OC)c2c1

>  <category>
active

$$$$

Lookup: Test call for this compound, please: CC(=O)Nc1cc2c(cc1[N+](=O)[O-])[nH]c1ccccc12
Found: active

Lookup: Lab log entry: Nc1ccc2cc(S(=O)(=O)O)cc(O)c2c1N=Nc1ccc([N+](=O)[O-])cc1S(=O)(=O)O — outcome as called in the assay?
Found: inactive

Lookup: Dear colleague, could you share the recorded outcome for Nc1cc2[nH]c3ccccc3c2cc1[N+](=O)[O-] when you have a moment?
Found: active

Lookup: Which outcome was entered for the compound O=c1ccc2cc3ccoc3cc2o1 in this test?
Found: inactive

Lookup: State the result this test recorded for CC(=O)Nc1ccc2c(c1)Cc1ccccc1-2 .
Found: active

Lookup: Dear all, I need the recorded test outcome for Nc1ccc2[nH]c3ccccc3c2c1[N+](=O)[O-] , thank you.
Found: active

Lookup: Could you please tell me the result logged for c1ccc(-c2cccc(-c3ccccn3)n2)nc1 in this assay?
Found: inactive

Lookup: Called result for O=CC1C=COC=C1
Found: inactive

Lookup: Can you look up the reported call for c1ccc(-c2cccnc2)nc1 for me?
Found: inactive

Lookup: Record lookup: outcome of this test for COc1ccc(O)c2c(=O)c3c(OC)cc4c(c3oc12)C1CCOC1O4 (stereo not drawn) ?
Found: inactive

Lookup: Recorded test call requested for O=c1ccc2ccc3occc3c2o1
Found: inactive

----------
Test system: CCRIS mutagenicity, Ames/micronucleus/aberration tests
procedure_text: CCRIS mutagenicity studies
details: Test System: AMES SALMONELLA TYPHIMURIUM; Strain/Indicator: TA100; Metabolic Activation: NONE; Method: PREINCUBATION
Active and inactive are the calls of the source. How the calls were made is not given here.
endpoint: mutagenic call

// solved cases for mutagenic call follow
>  <molecule>
CNS(=O)(=O)c1ccc(N)cc1

>  <mutagenic call>
inactive; negative

$$$$
>  <molecule>
Nc1ccnc2ccccc12

>  <mutagenic call>
inactive; negative

$$$$
>  <molecule>
Cc1cnccn1

>  <mutagenic call>
inactive; negative

$$$$
>  <molecule>
CCCCOC(=O)c1ccccc1C(=O)OC1CCCCC1

>  <mutagenic call>
inactive; negative

$$$$
>  <molecule>
CC[N+](=O)[O-]

>  <mutagenic call>
inactive; negative

$$$$

Moving on to another molecule below.
Lookup: # query: mutagenic call of entry CC(=O)c1cc(NC(=O)Nc2ccc(OCC(O)CNC(C)(C)C)c(C(C)=O)c2)ccc1OCC(O)CNC(C)(C)C (configuration not stated)
Found: inactive; negative
